experiment: JC-1 mitochondrial potential readout, lung cancer cells – cell-based, A549, JC-1 fluorescence, basal, 24 h, 100 nL, profiling panel (AID 1138); details: higher = more signal;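 also: A549 lung adenocarcinoma cells under basal conditions with no added stimulus; test concentration not given here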
Category scheme (z-score): bin 1 = under 0.08, bin 2 = from 0.08 up to 1, bin 3 = 1 and over

The examples below pair each entry with its known result.
Request: # bin label for `COc1cccc(C[C@H]2C[C@@H](CO[Si](C(C)C)(C(C)C)C(C)C)N3C(=O)[C@]4(C(C)=O)O[C@]23[C@H]2C(=O)N(C)C(=O)[C@H]24)c1`
Response: bin 3

Request: Consider CCN(CC)c1ccc(N2CC=CC34O[C@@H]5/C=C\CCCOC(=O)C5[C@H]3C(=O)N(CCCCCCO)[C@@H]4C2=O)cc1 (stereo partly drawn) . To which z-score class does it belong?
Response: bin 3

Request: Please classify: `[N-]=[N+]=NCc1ccccc1C[C@@]1(C(=O)NCCN2CCOCC2)N=C(c2ccc(OCCCO)cc2)O[C@@H]1c1ccccc1CN=[N+]=[N-]`
Response: bin 3

Request: Place this compound in its band: C=CCC(OC(C)=O)[C@@H]1[C@@H](N(Cc2cccc3ccccc23)C(=O)c2ccc(C)cc2)c2cc(OCCCO)ccc2N1C(=O)c1ccc2ccccc2c1 (stereo partly drawn)
Response: bin 3

Request: Which z-score band matches `C[N+](C)(C)CCCCCCNC(=O)[C@@H]1C[C@@H]2C(=O)NCC(=O)N2[C@@H]1c1cccc(OCCO)c1` ?
Response: bin 1

Others:
Request: # classify by z-score band: O=C(C=C(CC(O)c1cccc(Cl)c1)OCCF)OCCF (stereo not drawn)
Response: bin 1

Request: Band assignment needed for `Cc1ccc(N2C(=O)c3ccccc3[C@](C)(C(=O)NC(C)C)[C@@H]2c2ccc(CO)cc2)nc1` please.
Response: bin 1

Request: Given `NC(=O)[C@H]1[C@@H]2C(=O)O[C@@H](c3ccccc3)[C@@H](c3ccccc3)N2[C@@H](c2ccc(O)cc2)[C@]12C(=O)Nc1ccc(C#CC3(O)CCCCCC3)cc12` , name the class its z-score places it in.
Response: bin 1

Request: Field: class (z-score) — entry: `CN(C)C(=O)[C@]1(Cc2ccccc2N=[N+]=[N-])N=C(c2ccc(OCCCO)cc2)O[C@@H]1c1ccccc1CN=[N+]=[N-]`
Response: bin 2

Request: Lab note: sort `CCCCC(=C=CC[C@H](O)c1ccccc1OCCO)C[C@H](O)c1ccccn1` into the matching z-score band.
Response: bin 2

Request: Bin? `COC(=O)[C@@]1(Cc2ccccc2)[C@H]2c3cc(C(=O)N4CCCC4)n(Cc4ccccc4)c3C[C@H]2CN1C(=O)c1ccccc1`
Response: bin 2

Request: Hey, which category is `C=CCNC(=O)[C@H]1[C@@H]2C(=O)O[C@@H](c3ccccc3)[C@@H](c3ccccc3)N2[C@@H](c2ccc(O)cc2)[C@]12C(=O)N(C(=O)OCCOC)c1ccc(C#CC3(O)CCCCCC3)cc12` in, do you know?
Response: bin 3

Request: Assign a category based on measured z-score for O=C1OCCC=C[C@H]2OC34C=CCN(Cn5nnc6ccccc65)C(=O)[C@H]3N(CCCCCO)C(=O)[C@@H]4C12 (stereo partly drawn) and give only the class name.
Response: bin 2

Request: Where would `COCCOC(=O)N1C(=O)[C@@]2(c3cc(C#CCCO)ccc31)[C@H](C(=O)NC[C@H](O)c1ccccc1)[C@H]1C(=O)O[C@H](c3ccccc3)[C@H](c3ccccc3)N1[C@@H]2c1ccccc1OCCO` land among the classes by reported z-score?
Response: bin 2

Request: Please report the category associated with `O=C1O[C@@H](c2ccccc2)[C@@H](c2ccccc2)N2[C@@H](c3ccc(O)cc3)[C@]3(C(=O)Nc4ccc(C#CC5=CCCCC5)cc43)[C@@H](C(=O)Nc3nc4ccccc4s3)[C@H]12` , nothing else.
Response: bin 1

Request: # bin lookup: classify `COC(=O)[C@H]1N=C(c2ccc(OCCCO)cc2)O[C@H]1c1ccccc1CN=[N+]=[N-]` by its z-score
Response: bin 2

Request: Exam item: assign COC(=O)c1ccc(OC)c(/C=C\CC(CCc2ccccc2)OC(=O)c2ccncc2)c1 (stereo not drawn) to the correct category.
Response: bin 3

* * *

assay: JC-1 mitochondrial signal, unstimulated adipocytes – cell-based, JC-1 fluorescence, 3T3-L1 adipocytes, 24 h, 100 nL compound, profiling panel (AID 1168); conditions: JC-1 mitochondrial fluorescence, higher = more signal, called active from +8 up or from −8 down; also: test concentration not given here
Measured Quantity: z-score
One number for each entry.

# annotated cases, reported z-score shown
Request: Could you tell me which z-score is on file for `CC(C)NC(=O)[C@@H]1c2ccccc2C(=O)N(Cc2cc(C(F)(F)F)cc(C(F)(F)F)c2)[C@H]1c1ccc(CO)cc1` ?
Response: 0.198

Request: // query z-score value for entry `C=CC[C@]1(C(=O)N(C)C)N=C(c2ccc(OCCCO)cc2)O[C@H]1c1ccccc1`
Response: 0.644

Request: Form field: reported z-score of `C[C@@]1([C@@H](NC(=O)c2cccs2)c2ccc(-c3ccccc3)cc2)C[C@H]1C1CCCCC1`
Response: 0.395

Request: State the recorded z-score for this entry: `CC(=O)NCCCC[C@@H]1NC(=O)[C@@H]2C[C@H](C(=O)NCCCC[N+](C)(C)C)[C@H](c3cccc(OCCO)c3)N2C1=O`
Response: -0.0939

Please give z-score, item by item, for the list that follows.
1. COCCOC(=O)N1C(=O)[C@@]2(c3cc(C#CCCO)ccc31)[C@H](c1ccc(OCCO)cc1)N1[C@H](c3ccccc3)[C@H](c3ccccc3)OC(=O)[C@H]1[C@@H]2C(=O)N1CCc2cc(OC)c(OC)cc2C1
2. CN(C)C(=O)[C@]1(Cc2ccccc2N=[N+]=[N-])N=C(c2ccc(OCCCO)cc2)O[C@@H]1c1ccccc1CN=[N+]=[N-]
3. CC(C)NC(=O)[C@@]1(Cc2ccccc2I)c2ccccc2C(=O)N(Cc2ccccc2C(F)(F)F)[C@H]1c1ccc(CO)cc1
4. CC(C)C(CO)N1C(=O)[C@@H]2[C@H]3C(=O)OCC=C[C@H]3OC23C=CCN(Cn2nnc4ccccc42)C(=O)[C@@H]13 (stereo not given in full)

Response:
[1.79, -0.286, 0.536, -0.373]

For every listed record, write down its z-score.
1. O=C1OCC=C[C@H]2OC34C=CCN(CCN5CCOCC5)C(=O)[C@H]3N(CCCCCO)C(=O)[C@@H]4[C@@H]12 (stereo not given in full)
2. C[C@H]1ON(c2ccccc2)[C@@H](c2ccccc2)[C@@H]1C(=O)N1C(=O)OC[C@@H]1c1ccccc1

Response:
0.379
0.46

* * *

test: growth of efflux-deficient E. coli DRC39 – strain DRC39, OD650, 48 h, E. coli filamentation inducers, primary screen (AID 1179);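 also: screen aims at cell division blockers that make cells filament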; settings: E. coli DRC39 delta-acrAB growth, higher = more signal, called active from +8 up or from −8 down
Provide the recorded z-score for the entries that follow.
Give bare numbers.

Completed entries (count: 6):
Request: Item `COc1ccc([Si](C)(C)[C@@H]2[C@@H](CCO)O[C@]3(C(=O)N(Cc4ccccc4)c4ccc(N5C(=O)COc6ccccc65)cc43)[C@H]2C)cc1` has what recorded z-score?
Response: -0.266

Request: Please look up its z-score: `C[N+](C)(C)CCCCCCNC(=O)[C@@H]1C[C@@H]2C(=O)NCC(=O)N2[C@@H]1c1ccc(O)cc1`
Response: 0.128

Request: Look at this compound and give its reported z-score. `O=[N+]([O-])c1ccc(C[n+]2ccc(-c3ccc(CO)cc3)cc2)o1`
Response: -0.495

Request: Need z-score of `CO[C@H]1O[C@H](CO)[C@@H](OC(=O)Nc2ccc(C(F)(F)F)cc2)[C@H](OC(=O)Nc2ccccc2)[C@H]1OC(=O)Nc1ccccc1` , thanks.
Response: -1.17

Request: // returns reported z-score for input `CC(C)C[C@@H]1NC(=O)[C@@H]2C[C@H](C(=O)NCc3ccc(F)cc3)[C@H](c3ccc(O)cc3)N2C1=O`
Response: -1.2

Request: Item `[N-]=[N+]=NCc1ccccc1[C@H]1OC(c2ccc(OCCCO)cc2)=N[C@@]1(Cc1ccccc1N=[N+]=[N-])C(=O)NCCN1CCOCC1` has what recorded z-score?
Response: -0.357

Next up:
Request: For Cc1cc(C)c(C(O)C2C=CC3C(=O)N(c4ccccc4)C(=O)C3N2Nc2ccccc2)c(C)c1 (configuration not stated) , what is its reported z-score?
Response: 0.445

* * *

Give composite z-score for every item shown.
test system: Plasmodium falciparum Sir2 (PF13_0152, Sir2A); experiment: Plasmodium falciparum Sir2A binding compounds – biochemical, small-molecule microarray, 635 nm fluorescence, primary screen (AID 1098); conditions: fluorescence 635 nm, higher = more signal;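 also: score merges spot fluorescence intensity with its signal-to-noise ratio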
Answers are plain numbers.

Request: Any idea what composite z-score was measured for CN1C(=O)C2C=CC(C(O)c3cccc4ccccc34)N(NC(=O)OC(C)(C)C)C2C1=O (configuration not stated) ?
Response: 1.37

Request: Sample `COc1ccc(C(=O)Nc2ccc(CN3C(=O)[C@@]4(O[C@@H](CC(=O)N5Cc6ccccc6C[C@H]5CO)[C@H]([Si](C)(C)c5ccc(OC)cc5)[C@H]4C)c4ccccc43)cc2)cc1` — what was its composite z-score?
Response: 1.33

Request: Query (compound): `Cc1ccc(S[C@]2(C(=O)O)CC(=O)N(Cc3ccccc3C(F)(F)F)[C@@H]2c2ccc(CO)cc2)cc1` ; field requested: composite z-score
Response: -0.809

Items follow; give composite z-score for each.
1. CN(C)C(=O)[C@@]1(CCC(=O)OC(C)(C)C)COC(c2ccc(OCCCO)cc2)=N1
2. COCCOC(=O)N1C(=O)[C@@]2(c3cc(C#CC4(O)CCCCCC4)ccc31)[C@H](C(=O)N1CCN(c3ncccn3)CC1)[C@H]1C(=O)O[C@H](c3ccccc3)[C@H](c3ccccc3)N1[C@@H]2c1ccc(O)cc1
3. O=C1O[C@H](c2ccccc2)[C@H](c2ccccc2)N2[C@H]1[C@@H](C(=O)N1CCCCCCC1)[C@]1(C(=O)Nc3ccc(C#CCCO)cc31)[C@H]2c1ccc(OCCO)cc1
4. CC(C)CN1C(=O)[C@@]2(Cc3ccccc31)c1ccccc1C(=O)N(Cc1ccccc1)[C@H]2c1ccc(CO)cc1

Response:
1: 0.999; 2: 1.27; 3: 2.14; 4: -0.743

Where do these numbers come from? They come from PubChem BioAssay.
